Biological target: RORγ ligand binding domain (LBD) (Homo sapiens)
Construct: made in house; host or cells: E. coli BL-21 (BL3), vector pDEST15
Sequence (P51449 269-508 limits assumed): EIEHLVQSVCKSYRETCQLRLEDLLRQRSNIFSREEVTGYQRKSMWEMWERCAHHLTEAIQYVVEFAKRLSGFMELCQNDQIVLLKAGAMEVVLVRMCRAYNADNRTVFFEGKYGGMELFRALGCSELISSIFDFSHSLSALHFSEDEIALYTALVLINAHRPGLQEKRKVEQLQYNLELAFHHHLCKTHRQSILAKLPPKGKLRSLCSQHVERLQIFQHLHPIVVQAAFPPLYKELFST
Assay: TR-FRET Activity Assay (ligand sensing, RORγ-LBD / coactivator peptide interaction, LANCE)
Assay type: biochemical
Conditions: first value of the cell FRET/FF/REN; TR-FRET activity assay; read-out: pIC50 (FRET) (converted)
Experimental readout: IC50 (µM)
Respond numerically; units are µM and should not be typed.

Examples with answers:
1. Cc1c(C(=O)NCC(C)(C)C(=O)O)cc(-c2cc(C(C)(C)C)c3c(c2)C(C)(C)C(=O)N3C)n1CC1CCCCC1 | 2
2. Cc1c(C(=O)NC2COC2)cc(-c2cnc(NCC(C)(C)C)c(C(F)(F)F)c2)n1CC1CCCCC1 | 1.58
3. Cc1c(C(=O)NC2CCOCC2)cc(-c2ccc(-c3ccnn3C(C)C)c(C(F)(F)F)c2)n1CC1CCCCC1 | 0.501
4. Cc1c(C(=O)N[C@H]2C[C@H](C(=O)O)C2)cc(-c2cc(OCC(C)(C)C)nc(C(C)(C)C)c2)n1CC1CCCCC1 | 0.631

Prompt: State measured IC50 of the compound `Cc1c(C(=O)NC2(C#N)CC2)cc(-c2cc(C(C)(C)C)cc(C(C)(C)C)c2)n1CC1CCCCC1` with RORγ ligand binding domain (LBD) (Homo sapiens).
Completion: 1.26

Prompt: Under RORγ ligand binding domain (LBD) (Homo sapiens), report IC50 for `Cc1c(C(=O)NC2COC2)cc(-c2ccc(S(=O)(=O)N(C)C(C)(C)C)c(C(C)(C)C)c2)n1CC1CCCCC1`
Completion: 0.316

Prompt: Recall the reported IC50 of `Cc1c(C(=O)N[C@H]2C[C@H](C(=O)O)C2)cc(-c2cc(C(C)(C)C)cc(C(=O)NC(C)(C)C)c2Cl)n1CC1CCCCC1` when tested on RORγ ligand binding domain (LBD) (Homo sapiens).
Completion: 7.94

Prompt: Under RORγ ligand binding domain (LBD) (Homo sapiens): report IC50 of Cc1c(C(=O)NC2COC2)cc(-c2cc(C(C)(C)C)cc(C(C)(C)C)c2)n1C(C)C1CCCCC1 (stereo not drawn) .
Completion: 0.316

Prompt: Answer with IC50 of `Cc1c(C(=O)NCC(C)(C)O)cc(-c2cc(OC(F)(F)F)cc(C(=O)NC(C)(C)C)c2)n1CC1CCCCC1` measured for RORγ ligand binding domain (LBD) (Homo sapiens).
Completion: 0.631

Prompt: Write IC50 of `Cc1c(S(=O)(=O)NC(C)(C)C)ccc(-c2cc(C(=O)NCCC(C)(C)C(=O)O)c(C)n2CC2CCCCC2)c1C(F)(F)F` ; system used: RORγ ligand binding domain (LBD) (Homo sapiens)
Completion: 1.26

Prompt: Report the value of IC50 obtained on RORγ ligand binding domain (LBD) (Homo sapiens) for `COC(=O)CC1(NC(=O)c2cc(-c3cc(C(C)(C)C)cc(C(C)(C)C)c3)n(CC3CCCCC3)c2C)COC1` .
Completion: 0.316

Prompt: Check RORγ ligand binding domain (LBD) (Homo sapiens) data and give IC50 for `Cc1c(C(=O)NC2CCOCC2)cc(-c2ccc(S(=O)(=O)NC(C)(C)C)c3sccc23)n1CC1CCCCC1` .
Completion: 0.2

Prompt: Given COC(C)(c1cc(-c2cc(C(=O)NC3CCOCC3)c(C)n2CC2CCCCC2)cc(C(C)(C)C)c1)C(F)(F)F (stereo not drawn) , report its IC50 on RORγ ligand binding domain (LBD) (Homo sapiens).
Completion: 0.398

Prompt: Write down measured IC50 (RORγ ligand binding domain (LBD) (Homo sapiens)) for this compound. `CNC(=O)c1ccc(-c2cc(C(=O)NC3CCOCC3)c(C)n2CC2CCCCC2)cc1C(C)(C)C`
Completion: 10

Prompt: Write down the reported IC50 (system: RORγ ligand binding domain (LBD) (Homo sapiens)) of `Cc1c(C(=O)NCC(C)(C)O)cc(-c2cc(C(=O)NC(C)C)cc(C3(C)CC3)c2)n1CC1CCCCC1`
Completion: 0.501
